Test: Partition coefficient at pH 7.4 by shake-flask method
Format: physicochemical
Conditions: octanol/water
reported-metric: logD
Provide a numeric answer; units are not to be included.

Data request: Name the reported logD value associated with the compound "NC(=O)c1cc(N(CCCl)CCCl)c([N+](=O)[O-])cc1[N+](=O)[O-]"
Data returned: 1.52

----------
Assay: Toxicity in ip dosed CD1 nude mouse in DMSO
Format: organism-based
Conditions: in vivo
reported-metric: MTD (µmol/kg)
Supply the numeric figure in µmol/kg, leaving out any unit text.

Completed entries (count: 4):
CS(=O)(=O)c1cc([N+](=O)[O-])c(C(N)=O)cc1N(CCBr)CCBr	750
CS(=O)(=O)OCCN(CCI)c1cc(C(N)=O)c([N+](=O)[O-])cc1[N+](=O)[O-]	1330
CS(=O)(=O)OCCN(CCBr)c1cc(C(N)=O)c([N+](=O)[O-])cc1[N+](=O)[O-]	1780
O=C(NCCCO)c1cc(N(CCBr)CCBr)c([N+](=O)[O-])cc1[N+](=O)[O-]	1780

Please turn your attention to the following entry.
Data request: Would you kindly share the measured MTD for CS(=O)(=O)OCCN(CCBr)c1cc(C(=O)NCC(O)CO)c([N+](=O)[O-])cc1[N+](=O)[O-] (stereo not given) ?
Data returned: 1330
